This collection of values is drawn from patent US20130109682A1.

- assay-target: PIM1 (Homo sapiens)
- Sequence (P11309 whole entry): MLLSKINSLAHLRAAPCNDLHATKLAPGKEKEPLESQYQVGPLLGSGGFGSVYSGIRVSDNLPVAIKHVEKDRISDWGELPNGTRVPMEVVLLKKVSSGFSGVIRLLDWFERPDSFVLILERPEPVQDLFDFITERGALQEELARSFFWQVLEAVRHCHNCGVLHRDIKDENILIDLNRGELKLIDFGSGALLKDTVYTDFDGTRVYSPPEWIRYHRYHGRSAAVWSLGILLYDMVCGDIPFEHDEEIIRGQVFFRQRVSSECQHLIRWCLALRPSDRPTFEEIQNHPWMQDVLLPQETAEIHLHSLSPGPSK
- protocol-notes: KinaseGlo Pim1 ATP depletion assay
- Type: biochemical
pIC50: −log10 of the molar value.
assay-metric: pIC50

Worked examples, 5 compounds total:
> print(dat)
                                   compound  recorded.value
1  C[C@H]1OC(c2ccncc2NC(=O)c2nc(-c3c(F)cccc3F)ncc2N)=C[C@@H](O)[C@]1(C)O            9.15
2  C[C@H]1O[C@@H](c2ccncc2NC(=O)c2nc(-c3nccs3)ccc2N)C[C@@H](O)[C@]1(C)O            7.76
3  C[C@H]1O[C@@H](c2ccncc2NC(=O)c2nc(-c3ccccc3)cnc2N)C[C@@H](O)[C@]1(C)O            9.00
4  C[C@@H]1O[C@H](c2ccncc2NC(=O)c2ccc(F)c(-c3c(F)cccc3F)n2)C[C@H](O)[C@@]1(C)O (stereo in doubt)            9.00
5  C[C@H]1O[C@@H](c2ccncc2NC(=O)c2ccc(F)c(-c3c(F)cccc3F)n2)[C@H](F)[C@@H](O)[C@]1(C)O (stereo in doubt)            8.40

a: CC[C@]1(O)[C@H](C)O[C@H](c2ccncc2NC(=O)c2ccc(F)c(-c3c(F)cccc3F)n2)C[C@@H]1O (stereo in doubt)
b: O=C(Nc1cnccc1[C@@H]1C[C@H](O)[C@]2(O)CCCC[C@@H]2O1)c1ccc(F)c(-c2c(F)cccc2F)n1
Query: Consider a and b . Which of these has its pIC50 at a higher number? Mark your answer with the label of the selected entry.
Result: a

1: O=C(Nc1cnccc1[C@H]1C[C@@H](O)[C@H](O)[C@@H](CF)O1)c1ccc(F)c(-c2c(F)cccc2F)n1
2: N#CC[C@H]1O[C@@H](c2ccncc2NC(=O)c2ccc(F)c(-c3c(F)cccc3F)n2)C[C@@H](O)[C@@H]1O
3: CC[C@@]1(O)[C@H](C)O[C@H](c2ccncc2NC(=O)c2ccc(F)c(-c3c(F)cccc3F)n2)C[C@@H]1O
4: NC(=O)C[C@H]1O[C@@H](c2ccncc2NC(=O)c2ccc(F)c(-c3c(F)cccc3F)n2)C[C@@H](O)[C@@H]1O
5: Nc1cnc(-c2c(F)cccc2F)nc1C(=O)Nc1cnccc1[C@@H]1C[C@H](O)[C@]2(O)CCCC[C@@H]2O1
Query: Arrange items by their pIC50 values in increasing order. Use the labels to give the ranking in the order requested.
Result: 4, 5, 3, 2, 1

1: C[C@H]1[C@H](C)O[C@H](c2ccncc2NC(=O)c2ccc(F)c(-c3c(F)cccc3F)n2)C[C@@H]1O (stereo in doubt)
2: CC[C@]1(O)[C@H](O)C[C@H](c2ccncc2NC(=O)c2nc(-c3ccnnc3)ccc2N)O[C@@H]1C
Query: // compare measured pIC50 between 1 and 2 ; output the lower one Mark your answer with the label of the selected entry.
Result: 2
(2: 6.78, 1: 9.00)

A: C[C@H]1C[C@@H](O)C[C@@H](c2ccncc2NC(=O)c2ccc(F)c(-c3c(F)cccc3F)n2)O1 (stereo in doubt)
B: CC[C@]1(O)[C@H](O)C[C@H](c2ccncc2NC(=O)c2nc(-c3ccccc3)ncc2N)O[C@@H]1C
C: N#CC[C@H]1O[C@@H](c2ccncc2NC(=O)c2ccc(F)c(-c3c(F)cccc3F)n2)CC[C@@H]1O
D: O=C(Nc1cnccc1[C@@]1(C(F)(F)F)CCCCO1)c1ccc(F)c(-c2c(F)cccc2F)n1
E: O=C(Nc1cnccc1C1=C[C@@H](O)[C@H](O)[C@@H](CO)O1)c1ccc(F)c(-c2c(F)cccc2F)n1
Query: Output the entries ranked by pIC50 from maximum down to minimum. Use the labels to give the ranking in the order requested.
Result: A, E, B, C, D

a: C[C@@H]1O[C@H](c2ccncc2NC(=O)c2ccc(F)c(-c3c(F)cccc3F)n2)C[C@H](N)[C@H]1O
b: C[C@H]1O[C@@H](c2ccncc2NC(=O)c2ccc(F)c(-c3c(F)cccc3F)n2)C[C@@H](O)[C@]1(C)O (stereo in doubt)
c: CC(C)NC(=O)c1ccc(F)c(-c2ccc(N)c(C(=O)Nc3cnccc3[C@H]3C[C@@H](O)[C@](C)(O)[C@@H](C)O3)n2)c1
Query: Output the entries ranked by pIC50 from maximum down to minimum. Use the labels to give the ranking in the order requested.
Result: a, c, b
(a: 9.00, c: 8.70, b: 7.72)

---

- assay-target: PIM3 (Homo sapiens, UniProt Q86V86)
- protocol-notes: KinaseGlo Pim3 ATP depletion assay
- Type: biochemical
assay-metric: IC50 (nM)

Worked examples, 2 compounds total:
> print(dat)
                                smiles.text  assay.metric  units.label  recorded.value
1  O=C(Nc1cnccc1[C@@]1(C(F)(F)F)C[C@@H](O)CCO1)c1ccc(F)c(-c2c(F)cccc2F)n1          IC50           nM             847
2  C[C@@H]1O[C@H](c2ccncc2NC(=O)c2nc(-c3ccccc3)cnc2N)[C@@H](F)[C@H](O)[C@@]1(C)O          IC50           nM              31

a: O=C(Nc1cnccc1[C@H]1C[C@@H](O)[C@@]2(O)CCCC[C@H]2O1)c1ccnn(-c2ccccc2F)c1=O
b: O=C(Nc1cnccc1[C@H]1C[C@@H](O)[C@@]2(O)CCC[C@H]2O1)c1ccc(F)c(-c2c(F)cccc2F)n1
Query: // compare measured IC50 between a and b ; output the lower one Mark your answer with the label of the selected entry.
Result: b
(b: 2 nM, a: 35.5 nM)

---

- assay-target: PIM1 (Homo sapiens)
- protocol-notes: KinaseGlo Pim1 ATP depletion assay
- Assay type: biochemical
pIC50: −log10 of the molar value.
assay-metric: pIC50

> print(dat)
                                   molecule  assay.metric  recorded.value
1  CC[C@H]1O[C@@H](c2ccncc2NC(=O)c2nc(-c3nccs3)ccc2N)C[C@@H](O)[C@@H]1O [Example 145]         pIC50            7.74
2  O=C(Nc1cnccc1[C@H]1OCC[C@@H](CO)O1)c1ccc(F)c(-c2c(F)cccc2F)n1 [Example 103]         pIC50            7.96
3  CC[C@H]1O[C@@H](c2ncncc2NC(=O)c2ccc(F)c(-c3c(F)cccc3F)n2)C[C@@H](O)[C@@H]1O [Example 162]         pIC50            6.67

a: O=C(Nc1cnccc1[C@H]1C[C@@H](O)[C@@]2(O)CCC[C@H]2O1)c1ccnn(-c2ccccc2F)c1=O [Example 201]
b: C=C1[C@H](O)C[C@H](c2ccncc2NC(=O)c2nc(-c3c(F)cccc3F)ncc2N)OC12CC2 [Example 8]
Query: // compare measured pIC50 between a and b ; output the lower one Mark your answer with the label of the selected entry.
Result: a

A: O=C(Nc1cnccc1[C@H]1C[C@@H](O)[C@@]2(O)CCC[C@H]2O1)c1c[nH]cc(-c2ccccc2)c1=O [Example 181]
B: N[C@H]1C[C@@H](c2ccncc2NC(=O)c2ccc(F)c(-c3c(F)cccc3F)n2)O[C@H]2CCC[C@]21O [Example 212]
Query: // compare measured pIC50 between A and B ; output the lower one Mark your answer with the label of the selected entry.
Result: A
(A: 6.08, B: 7.75)

---

- assay-target: PIM1 (Homo sapiens)
- protocol-notes: KinaseGlo Pim1 ATP depletion assay
- Assay type: biochemical
pIC50: −log10 of the molar value.
assay-metric: pIC50

> print(dat)
                                   molecule  recorded.value
1  C[C@@H]1O[C@H](c2ccncc2NC(=O)c2nc(-c3ccccc3)cnc2N)[C@@H](F)[C@H](O)[C@@]1(C)O            8.22
2  C[C@H]1O[C@@H](c2ccncc2NC(=O)c2csc(-c3c(F)cccc3F)n2)C[C@@H](O)[C@@H]1O (stereo in doubt)            7.74
3  C[C@@H]1O[C@H](c2ccncc2NC(=O)c2csc(-c3c(F)cccc3F)n2)C[C@H](O)[C@@]1(C)O (stereo in doubt)            9.00

I: O=C(Nc1cnccc1[C@H]1C[C@@H](O)[C@H](O)[C@@H](CCl)O1)c1ccc(F)c(-c2c(F)cccc2F)n1
II: CC[C@]1(O)[C@H](O)C[C@H](c2ccncc2NC(=O)c2nc(-c3ccncc3F)ccc2N)O[C@@H]1C
Query: Consider I and II . Which of these has its pIC50 at a higher number? Mark your answer with the label of the selected entry.
Result: I

I: C[C@H]1[C@H](O)C[C@H](c2ccncc2NC(=O)c2ccc(F)c(-c3c(F)cccc3F)n2)O[C@@H]1C (stereo in doubt)
II: C[C@H]1[C@H](O)C[C@H](c2ccncc2NC(=O)c2csc(-c3c(F)cccc3F)n2)O[C@@H]1C (stereo in doubt)
Query: Consider I and II . Which of these has its pIC50 at a higher number? Mark your answer with the label of the selected entry.
Result: I
(I: 8.30, II: 8.10)

1: CC[C@H]1O[C@@H](c2ccncc2NC(=O)c2nc(-c3ccccc3)ncc2N)C[C@@H](O)[C@@H]1O
2: C[C@H]1O[C@@H](c2ccncc2NC(=O)c2ccc(F)c(-c3c(F)cccc3F)n2)C[C@@H](O)[C@@H]1O
3: C[C@@H]1C[C@H](N)C[C@H](c2ccncc2NC(=O)c2csc(-c3c(F)cccc3F)n2)O1
Query: Output the entries ranked by pIC50 from maximum down to minimum. Use the labels to give the ranking in the order requested.
Result: 2, 1, 3
